Each recorded value in this set is attributed to ChEMBL document CHEMBL6127062.

System: AGS
Experiment: Anticancer activity against human AGS cells assessed as inhibition of cell growth incubated for 72 hrs by cell viability assay
Assay type: functional, cell-based
Recorded endpoint: pIC50
Remember the convention: pIC50 equals -log10 of concentration in molar.

Input: Dear colleague, I am looking for the recorded pIC50 of the following molecule: Cc1ncsc1-c1ccc(CNC(=O)[C@@H]2C[C@@H](O)CN2C(=O)[C@@H](NC(=O)CCCCCCCNc2cc(N3CCC4(CC3)CN(c3cc(F)c(CN5CCC(C)(C)CC5)cc3F)CC(=O)N4)ncn2)C(C)(C)C)cc1
Output: 5.83

----------
Test: Anticancer activity against human SNU484 cells assessed as inhibition of cell growth incubated for 72 hrs by cell viability assay
Format: functional, cell-based
Conditions: SNU-484, 72 h
Recorded endpoint: IC50 (nM)
Quick reminder: number only, in nM, skip the unit.

Input: Could you tell me which IC50 is on file for Cc1ncsc1-c1ccc(CNC(=O)[C@@H]2C[C@@H](O)CN2C(=O)[C@@H](NC(=O)CCCCCCCNc2cc(N3CCC4(CC3)CN(c3cc(F)c(CN5CCC(C)(C)CC5)cc3F)CC(=O)N4)ncn2)C(C)(C)C)cc1 ?
Output: 3000

----------
Molecular target: METTL3/METTL14 (Homo sapiens)
Sequence (Q86U44 whole entry): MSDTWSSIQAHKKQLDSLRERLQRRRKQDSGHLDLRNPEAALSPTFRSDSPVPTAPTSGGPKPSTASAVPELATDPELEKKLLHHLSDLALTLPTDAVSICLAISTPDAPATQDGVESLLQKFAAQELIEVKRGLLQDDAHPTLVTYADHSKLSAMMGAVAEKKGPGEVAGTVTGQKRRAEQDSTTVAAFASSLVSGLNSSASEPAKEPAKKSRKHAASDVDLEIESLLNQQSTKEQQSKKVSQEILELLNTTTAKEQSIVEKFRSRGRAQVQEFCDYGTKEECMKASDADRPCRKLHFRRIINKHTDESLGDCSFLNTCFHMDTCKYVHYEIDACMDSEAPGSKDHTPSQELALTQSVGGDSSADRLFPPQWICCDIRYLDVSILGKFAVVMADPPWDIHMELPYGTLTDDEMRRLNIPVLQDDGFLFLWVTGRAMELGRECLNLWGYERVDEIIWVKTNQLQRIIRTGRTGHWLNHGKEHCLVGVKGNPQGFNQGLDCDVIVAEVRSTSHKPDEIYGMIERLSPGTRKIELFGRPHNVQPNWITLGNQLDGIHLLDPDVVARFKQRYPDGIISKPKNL
Sequence (Q9HCE5 whole entry, further chain): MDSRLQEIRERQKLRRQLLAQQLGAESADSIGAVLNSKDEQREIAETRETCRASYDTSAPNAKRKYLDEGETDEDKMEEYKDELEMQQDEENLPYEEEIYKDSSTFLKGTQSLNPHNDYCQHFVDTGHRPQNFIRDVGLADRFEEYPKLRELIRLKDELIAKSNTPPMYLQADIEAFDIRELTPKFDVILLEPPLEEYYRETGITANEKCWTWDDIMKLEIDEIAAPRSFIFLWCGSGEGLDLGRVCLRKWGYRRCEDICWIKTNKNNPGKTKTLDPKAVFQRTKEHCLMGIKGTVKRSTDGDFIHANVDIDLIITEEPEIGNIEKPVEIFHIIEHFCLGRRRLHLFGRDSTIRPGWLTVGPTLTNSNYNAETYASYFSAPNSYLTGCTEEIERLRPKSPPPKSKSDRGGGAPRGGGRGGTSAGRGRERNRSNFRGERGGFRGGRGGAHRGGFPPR
Test: Inhibition of METTL3/METTL14 (unknown origin) using Oligo ssRNA as substrate incubated for 20 min by Hotspot RNA methyltransferase assay
Type: protein-complex assay
Recorded endpoint: IC50 (µM)
Response body: numeric value in µM, unit text excluded.

Input: Test system METTL3/METTL14 (Homo sapiens); read-out IC50; what value for Cc1ncsc1-c1ccc(CNC(=O)[C@@H]2C[C@@H](O)CN2C(=O)[C@@H](NC(=O)CCCCCCCNc2cc(N3CCC4(CC3)CN(c3cc(F)c(CN5CCC(C)(C)CC5)cc3F)CC(=O)N4)ncn2)C(C)(C)C)cc1 ?
Output: 0.341
